Each entry below carries its reported pIC50.
- assaySystem: UniProt:P19784
- Sequence (P19784 whole entry): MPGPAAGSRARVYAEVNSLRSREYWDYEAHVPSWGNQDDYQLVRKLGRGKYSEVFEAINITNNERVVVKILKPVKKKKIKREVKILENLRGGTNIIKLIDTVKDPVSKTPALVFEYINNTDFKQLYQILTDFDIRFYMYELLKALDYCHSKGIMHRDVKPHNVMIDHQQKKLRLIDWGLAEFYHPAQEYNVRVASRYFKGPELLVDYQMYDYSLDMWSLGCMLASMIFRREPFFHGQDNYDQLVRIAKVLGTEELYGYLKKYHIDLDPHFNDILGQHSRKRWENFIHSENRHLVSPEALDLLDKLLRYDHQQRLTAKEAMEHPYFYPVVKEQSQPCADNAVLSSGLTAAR
pIC50: −log10 of the molar value.
reportedProperty: pIC50

                                smilesinput  recordedmeasurement
0  CC(=O)Nc1ccc2ccn(-c3cc(NCC4CCOCC4)n4ncc(C#N)c4n3)c2c1                 5.70
1  CC(=O)Nc1ccc2ccn(-c3cc(NC45CC(C4)C5)n4ncc(C#N)c4n3)c2c1                 7.10
2  CCC(=O)Nc1cc(Nc2cc(NC3CC3)n3ncc(C#N)c3n2)ccc1N(C)CCN1CCCC1                 7.00
3  CC(=O)Nc1ccc2ccn(-c3cc(Sc4ccccc4)n4ncc(C#N)c4n3)c2c1                 5.20
